Quick reference: MIC of the listed items.
tested on: Escherichia coli; assay: Antibacterial activity against Escherichia coli ATCC 25922 isolate 107; assay type: functional
Write the number in µg/mL without appending the unit.

Query: Fill blank: measured MIC of the compound "CN(C)[C@@H]1C(O)=C(C(N)=O)C(=O)[C@@]2(O)C(O)=C3C(=O)c4c(O)c(CNCC(C)(C)C)cc(F)c4C[C@H]3C[C@@H]12" is ____.
Result: 4

Query: Fill blank: measured MIC of the compound "CN(C)[C@@H]1C(O)=C(C(N)=O)C(=O)[C@@]2(O)C(O)=C3C(=O)c4c(O)c(NC(=O)[C@@H]5CCCCN5)cc(F)c4C[C@H]3C[C@@H]12" is ____.
Result: 0.5

Further cases:
Query: Fill blank: measured MIC of the compound "CN(C)[C@@H]1C(O)=C(C(N)=O)C(=O)[C@@]2(O)C(O)=C3C(=O)c4c(O)c(NC(=O)[C@@H]5C[C@H](F)CN5C)cc(F)c4C[C@H]3C[C@@H]12" is ____.
Result: 2

Query: Fill blank: measured MIC of the compound "CN(C)[C@@H]1C(O)=C(C(N)=O)C(=O)[C@@]2(O)C(O)=C3C(=O)c4c(O)c(CNC(=O)CNC(C)(C)C)cc(F)c4C[C@H]3C[C@@H]12" is ____.
Result: 32

Query: Fill blank: measured MIC of the compound CN(C)c1cc(NC(=O)CNC(C)(C)C)c(O)c2c1C[C@H]1C[C@H]3[C@H](N(C)C)C(O)=C(C(N)=O)C(=O)[C@@]3(O)C(O)=C1C2=O [TIGECYCLINE] is ____.
Result: 0.125

Query: Fill blank: measured MIC of the compound "CNC(=O)Nc1cc(F)c2c(c1O)C(=O)C1=C(O)[C@]3(O)C(=O)C(C(N)=O)=C(O)[C@@H](N(C)C)[C@@H]3C[C@@H]1C2" is ____.
Result: 1

* * *

system: Streptococcus pneumoniae; assay: Antibacterial activity against tetracycline-resistant Streptococcus pneumoniae isolate 160 expressing tetM gene; assay type: functional
Criterion: MIC strictly less than 0.2 µg/mL. Met: y. Not met: n.

Query: I wonder whether "CN(C)[C@@H]1C(O)=C(C(N)=O)C(=O)[C@@]2(O)C(O)=C3C(=O)c4c(O)c(NC(=O)c5ccccn5)cc(F)c4C[C@H]3C[C@@H]12" has MIC below 0.2 µg/mL. Can you tell?
Result: n

Query: I wonder whether "CN(C)[C@@H]1C(O)=C(C(N)=O)C(=O)[C@@]2(O)C(O)=C3C(=O)c4c(O)c(NC(=O)CNC(C)(C)C)cc(F)c4C[C@H]3C[C@@H]12" has MIC below 0.2 µg/mL. Can you tell?
Result: y

Query: I wonder whether "CN(C)[C@@H]1C(O)=C(C(N)=O)C(=O)[C@@]2(O)C(O)=C3C(=O)c4c(O)c(NC(=O)[C@@H]5CCN5)cc(F)c4C[C@H]3C[C@@H]12" has MIC below 0.2 µg/mL. Can you tell?
Result: y

Query: I wonder whether "CN(C)[C@@H]1C(O)=C(C(N)=O)C(=O)[C@@]2(O)C(O)=C3C(=O)c4c(O)c(NC(=O)[C@H]5CCCCN5)cc(F)c4C[C@H]3C[C@@H]12" has MIC below 0.2 µg/mL. Can you tell?
Result: n

Query: I wonder whether "CN(C)[C@@H]1C(O)=C(C(N)=O)C(=O)[C@@]2(O)C(O)=C3C(=O)c4c(O)c(CNCC(C)(C)C)cc(F)c4C[C@H]3C[C@@H]12" has MIC below 0.2 µg/mL. Can you tell?
Result: n

Query: I wonder whether "CCN1CCC[C@H]1C(=O)Nc1cc(F)c2c(c1O)C(=O)C1=C(O)[C@]3(O)C(=O)C(C(N)=O)=C(O)[C@@H](N(C)C)[C@@H]3C[C@@H]1C2" has MIC below 0.2 µg/mL. Can you tell?
Result: y

Further cases:
Query: I wonder whether "CN(C)c1ccc(C(=O)Nc2cc(F)c3c(c2O)C(=O)C2=C(O)[C@]4(O)C(=O)C(C(N)=O)=C(O)[C@@H](N(C)C)[C@@H]4C[C@@H]2C3)cc1" has MIC below 0.2 µg/mL. Can you tell?
Result: n

Query: I wonder whether "CC(C)CCNc1cc(F)c2c(c1O)C(=O)C1=C(O)[C@]3(O)C(=O)C(C(N)=O)=C(O)[C@@H](N(C)C)[C@@H]3C[C@@H]1C2" has MIC below 0.2 µg/mL. Can you tell?
Result: n

Query: I wonder whether "CN(C)[C@@H]1C(O)=C(C(N)=O)C(=O)[C@@]2(O)C(O)=C3C(=O)c4c(O)c(NC(=O)c5cccn5C)cc(F)c4C[C@H]3C[C@@H]12" has MIC below 0.2 µg/mL. Can you tell?
Result: n

Query: I wonder whether "CN(C)[C@@H]1C(O)=C(C(N)=O)C(=O)[C@@]2(O)C(O)=C3C(=O)c4c(O)c(NC(=O)c5nccs5)cc(F)c4C[C@H]3C[C@@H]12" has MIC below 0.2 µg/mL. Can you tell?
Result: n

Query: I wonder whether "CN(C)[C@@H]1C(O)=C(C(N)=O)C(=O)[C@@]2(O)C(O)=C3C(=O)c4c(O)c(NC(=O)[C@@H]5CCCCN5C)cc(F)c4C[C@H]3C[C@@H]12" has MIC below 0.2 µg/mL. Can you tell?
Result: n

Query: I wonder whether "CN(C)c1cc(NC(=O)CNC(C)(C)C)c(O)c2c1C[C@H]1C[C@H]3[C@H](N(C)C)C(O)=C(C(N)=O)C(=O)[C@@]3(O)C(O)=C1C2=O" has MIC below 0.2 µg/mL. Can you tell?
Result: y

* * *

assay: Oral bioavailability in rat; format: ADME, organism-based; conditions: in vivo
test.readout: bioavailability (%)
Write the number in % without appending the unit.

For orientation, consider the following solved cases.
Query: Fill blank: measured bioavailability of the compound "CN(C)c1cc(CNCC(C)(C)C)c(O)c2c1C[C@H]1C[C@H]3[C@H](N(C)C)C(O)=C(C(N)=O)C(=O)[C@@]3(O)C(O)=C1C2=O" is ____.
Result: 0.7

Query: Fill blank: measured bioavailability of the compound "CN(C)[C@@H]1C(O)=C(C(N)=O)C(=O)[C@@]2(O)C(O)=C3C(=O)c4c(O)c(NC(=O)[C@@H]5CCN5C)cc(F)c4C[C@H]3C[C@@H]12" is ____.
Result: 4.6

Here's the next entry for you.
Query: Fill blank: measured bioavailability of the compound "CN(C)[C@@H]1C(O)=C(C(N)=O)C(=O)[C@@]2(O)C(O)=C3C(=O)c4c(O)c(NC(=O)[C@@H]5CCCN5C)cc(F)c4C[C@H]3C[C@@H]12" is ____.
Result: 5.7

* * *

test system: Streptococcus pyogenes; assay: Antibacterial activity against Streptococcus pyogenes; format: functional
Quick reference: MIC90 of the listed items.
Write the number in µg/mL without appending the unit.

Query: Fill blank: measured MIC90 of the molecule C[C@H]1COc2c(N3CCN(C)CC3)c(F)cc3c(=O)c(C(=O)O)cn1c23.C[C@H]1COc2c(N3CCN(C)CC3)c(F)cc3c(=O)c(C(=O)O)cn1c23.O [LEVOFLOXACIN] is ____.
Result: 2

Query: Fill blank: measured MIC90 of the molecule CN(C)[C@@H]1C(O)=C(C(N)=O)C(=O)[C@@]2(O)C(O)=C3C(=O)c4c(O)c(NC(=O)[C@@H]5CCCN5C)cc(F)c4C[C@H]3C[C@@H]12 [TP-271] is ____.
Result: 0.016

Query: Fill blank: measured MIC90 of the molecule CC(=O)NC[C@H]1CN(c2ccc(N3CCOCC3)c(F)c2)C(=O)O1 [LINEZOLID] is ____.
Result: 2

Here's the next entry for you.
Query: Fill blank: measured MIC90 of the molecule "CN(C)[C@@H]1C(O)=C(C(N)=O)C(=O)[C@@]2(O)C(O)=C3C(=O)c4c(O)c(NC(=O)[C@@H]5CCN5C)cc(F)c4C[C@H]3C[C@@H]12" is ____.
Result: 0.016

* * *

system: Escherichia coli; experiment: Antibacterial activity against Escherichia coli ATCC 25922 isolate 107; format: functional
test.readout: MIC (µg/mL)
Write the number in µg/mL without appending the unit.

For orientation, consider the following solved cases.
Query: Fill blank: measured MIC of the compound "CC(C)N1CCC[C@H]1C(=O)Nc1cc(F)c2c(c1O)C(=O)C1=C(O)[C@]3(O)C(=O)C(C(N)=O)=C(O)[C@@H](N(C)C)[C@@H]3C[C@@H]1C2" is ____.
Result: 2

Query: Fill blank: measured MIC of the compound "CN(C)[C@@H]1C(O)=C(C(N)=O)C(=O)[C@@]2(O)C(O)=C3C(=O)c4c(O)c(N)cc(F)c4C[C@H]3C[C@@H]12" is ____.
Result: 2

Query: Fill blank: measured MIC of the compound "CN(C)[C@@H]1C(O)=C(C(N)=O)C(=O)[C@@]2(O)C(O)=C3C(=O)c4c(O)c(NCCNC(C)(C)C)cc(F)c4C[C@H]3C[C@@H]12" is ____.
Result: 2

Query: Fill blank: measured MIC of the compound "CN(C)[C@@H]1C(O)=C(C(N)=O)C(=O)[C@@]2(O)C(O)=C3C(=O)c4c(O)c(Nc5ccncn5)cc(F)c4C[C@H]3C[C@@H]12" is ____.
Result: 2

Query: Fill blank: measured MIC of the compound "CN(C)[C@@H]1C(O)=C(C(N)=O)C(=O)[C@@]2(O)C(O)=C3C(=O)c4c(O)c(NC(=O)[C@H]5CCCN5C)cc(F)c4C[C@H]3C[C@@H]12" is ____.
Result: 2

Query: Fill blank: measured MIC of the compound "CN(C)[C@@H]1C(O)=C(C(N)=O)C(=O)[C@@]2(O)C(O)=C3C(=O)c4c(O)cccc4[C@@](C)(O)[C@H]3C[C@@H]12" is ____.
Result: 2

Query: Fill blank: measured MIC of the compound "CN(C)c1cc(CNCC(C)(C)C)c(O)c2c1C[C@H]1C[C@H]3[C@H](N(C)C)C(O)=C(C(N)=O)C(=O)[C@@]3(O)C(O)=C1C2=O" is ____.
Result: 2

Query: Fill blank: measured MIC of the compound "CN(C)[C@@H]1C(O)=C(C(N)=O)C(=O)[C@@]2(O)C(O)=C3C(=O)c4c(O)c(NC(=O)[C@H]5CCCCN5)cc(F)c4C[C@H]3C[C@@H]12" is ____.
Result: 4

Here's the next entry for you.
Query: Fill blank: measured MIC of the compound "CN(C)c1cc(F)c2c(c1O)C(=O)C1=C(O)[C@]3(O)C(=O)C(C(N)=O)=C(O)[C@@H](N(C)C)[C@@H]3C[C@@H]1C2" is ____.
Result: 4
